The reported measurements were obtained from ChEMBL document CHEMBL1909536.

Assayed target: Cytochrome P450 3A4 (Homo sapiens)
Assay: Inhibition of CYP3A4 in presence of the substrate 7-bezyloxy-4-trifluoromethyl coumarin
Assay type: ADME
Reported pIC50 values follow for various molecules
Scale: negative log10 of molar concentration, which is what pIC50 denotes.

Worked set:
| Molecule | Recorded result |
| --- | --- |
| Cc1nc2c(c(-c3ccc(Cl)cc3Cl)c1CN)CN(c1ccc(C#N)cc1)C2=O (single isomer, unassigned; atropisomer) | 6.17 |
| Cc1nc2c(c(-c3ccc(Cl)cc3Cl)c1CN)CN(c1ccc(F)cc1)C2=O (single isomer, unassigned; atropisomer) | 5.85 |
| COc1ccc(N2Cc3c(nc(C)c(CN)c3-c3ccc(Cl)cc3Cl)C2=O)cc1 (single isomer, unassigned; atropisomer) | 5.60 |

## Task Field request: pIC50 | item: Cc1nc2c(c(-c3ccc(Cl)cc3Cl)c1CN)CN(Cc1ccccc1)C2
## Result 6.11

## Task Look at this molecule and give its reported pIC50. Cc1nc2c(c(-c3ccc(Cl)cc3Cl)c1CN)CN(c1ccc(Cl)cc1)C2=O (single isomer, unassigned; atropisomer)
## Result 6.41

* * *

Assayed target: Voltage-gated inwardly rectifying potassium channel KCNH2 (Homo sapiens, UniProt Q12809)
Sequence (Q12809 whole entry): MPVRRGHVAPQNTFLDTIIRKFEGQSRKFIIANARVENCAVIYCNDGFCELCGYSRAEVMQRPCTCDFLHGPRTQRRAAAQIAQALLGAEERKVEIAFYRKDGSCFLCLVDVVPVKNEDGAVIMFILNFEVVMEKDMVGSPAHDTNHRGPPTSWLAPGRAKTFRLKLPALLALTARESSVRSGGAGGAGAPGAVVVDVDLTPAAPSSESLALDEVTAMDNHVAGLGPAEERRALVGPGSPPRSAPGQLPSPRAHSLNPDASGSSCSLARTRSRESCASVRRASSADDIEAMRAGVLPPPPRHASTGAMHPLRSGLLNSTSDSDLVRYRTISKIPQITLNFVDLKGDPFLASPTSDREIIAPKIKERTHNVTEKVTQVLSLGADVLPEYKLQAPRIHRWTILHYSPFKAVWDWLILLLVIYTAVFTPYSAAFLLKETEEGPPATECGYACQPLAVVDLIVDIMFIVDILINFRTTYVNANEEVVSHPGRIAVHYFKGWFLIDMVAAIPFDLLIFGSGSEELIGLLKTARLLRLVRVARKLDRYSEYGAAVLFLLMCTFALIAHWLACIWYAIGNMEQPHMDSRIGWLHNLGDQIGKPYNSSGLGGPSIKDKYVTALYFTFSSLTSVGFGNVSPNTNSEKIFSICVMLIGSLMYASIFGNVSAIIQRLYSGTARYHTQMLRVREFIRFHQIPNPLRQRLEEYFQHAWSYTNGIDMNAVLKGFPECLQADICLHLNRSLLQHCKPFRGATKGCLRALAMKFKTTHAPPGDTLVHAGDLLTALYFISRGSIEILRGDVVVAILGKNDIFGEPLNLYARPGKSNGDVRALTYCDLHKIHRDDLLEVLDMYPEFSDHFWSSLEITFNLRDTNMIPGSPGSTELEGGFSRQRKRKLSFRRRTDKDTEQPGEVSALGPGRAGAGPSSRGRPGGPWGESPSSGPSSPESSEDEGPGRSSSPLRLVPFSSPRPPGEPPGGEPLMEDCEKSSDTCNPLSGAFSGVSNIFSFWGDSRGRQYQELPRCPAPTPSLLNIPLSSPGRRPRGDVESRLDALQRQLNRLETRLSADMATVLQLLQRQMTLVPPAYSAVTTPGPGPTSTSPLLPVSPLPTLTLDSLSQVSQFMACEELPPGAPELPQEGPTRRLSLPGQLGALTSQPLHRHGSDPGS
Value kind: pIC50
// pIC50 here means minus log10 of the molar concentration (mol/L)

## Task # get_value(readout='pIC50', item= Cc1nc2c(c(-c3ccc(Cl)cc3Cl)c1CN)CN(CC(=O)NCc1cccnc1)C2=O )
## Result 4.10

* * *

Assayed target: Nuclear receptor subfamily 1 group I member 2 (Homo sapiens, UniProt O75469)
Sequence (O75469 whole entry): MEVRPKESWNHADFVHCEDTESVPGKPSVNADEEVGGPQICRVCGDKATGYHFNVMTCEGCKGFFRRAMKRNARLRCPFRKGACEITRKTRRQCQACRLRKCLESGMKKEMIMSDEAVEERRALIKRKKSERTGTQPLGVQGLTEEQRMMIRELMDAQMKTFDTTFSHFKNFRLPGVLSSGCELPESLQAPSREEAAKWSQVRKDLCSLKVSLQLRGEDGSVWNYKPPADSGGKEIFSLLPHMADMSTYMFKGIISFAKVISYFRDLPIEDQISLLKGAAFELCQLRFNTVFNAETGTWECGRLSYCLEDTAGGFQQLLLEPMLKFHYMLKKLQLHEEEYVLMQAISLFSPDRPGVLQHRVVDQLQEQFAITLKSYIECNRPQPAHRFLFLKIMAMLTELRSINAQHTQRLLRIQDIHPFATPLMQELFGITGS
Assay: Inhibition of PXR
Items are presented alongside their recorded EC20.
Your answer is read as µM, so omit the unit and give the number.

| Compound | Assayed target | EC20 [µM] |
| --- | --- | --- |
| Cc1nc2cn(Cc3ccccc3)cc2c(-c2ccc(Cl)cc2Cl)c1CN | Nuclear receptor subfamily 1 group I member 2 (Homo sapiens, UniProt O75469) | 1.9 |
| Cc1nc2c(c(-c3ccc(Cl)cc3Cl)c1CN)CN(Cc1ccccc1)C2=O (single isomer, unassigned; atropisomer) | Nuclear receptor subfamily 1 group I member 2 (Homo sapiens, UniProt O75469) | 0.47 |

Now let's try a different one.
## Task Need EC20, item Cc1nc2c(c(-c3ccc(Cl)cc3Cl)c1CN)CN(Cc1ccccc1)C2
## Result 1.1

* * *

Assayed target: Cytochrome P450 2C19 (Homo sapiens, UniProt P33261)
Sequence (P33261 whole entry): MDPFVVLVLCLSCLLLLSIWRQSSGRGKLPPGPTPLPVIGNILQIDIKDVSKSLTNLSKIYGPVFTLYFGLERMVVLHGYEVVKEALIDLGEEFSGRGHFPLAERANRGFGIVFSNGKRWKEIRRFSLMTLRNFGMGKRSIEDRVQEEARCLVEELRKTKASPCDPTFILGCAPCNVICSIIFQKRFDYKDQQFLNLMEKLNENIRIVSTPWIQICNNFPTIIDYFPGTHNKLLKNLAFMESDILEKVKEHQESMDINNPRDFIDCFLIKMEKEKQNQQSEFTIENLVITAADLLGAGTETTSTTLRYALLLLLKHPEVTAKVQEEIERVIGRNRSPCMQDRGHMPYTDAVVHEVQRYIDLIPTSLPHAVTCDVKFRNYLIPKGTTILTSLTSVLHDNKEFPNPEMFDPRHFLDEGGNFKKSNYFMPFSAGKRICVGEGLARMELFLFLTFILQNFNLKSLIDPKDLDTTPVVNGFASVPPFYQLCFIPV
Value kind: IC50 (µM)
Just the number in µM, nothing appended.

## Task Test system Cytochrome P450 2C19 (Homo sapiens, UniProt P33261); read-out IC50; what value for Cc1nc2c(c(-c3ccc(Cl)cc3Cl)c1CN)CN(Cc1ccccc1)C2=O (single isomer, unassigned; atropisomer) ?
## Result 15

* * *

# collection of IC50 values tested on Dipeptidyl peptidase 4 (Homo sapiens, UniProt P27487)
# Sequence (P27487 whole entry): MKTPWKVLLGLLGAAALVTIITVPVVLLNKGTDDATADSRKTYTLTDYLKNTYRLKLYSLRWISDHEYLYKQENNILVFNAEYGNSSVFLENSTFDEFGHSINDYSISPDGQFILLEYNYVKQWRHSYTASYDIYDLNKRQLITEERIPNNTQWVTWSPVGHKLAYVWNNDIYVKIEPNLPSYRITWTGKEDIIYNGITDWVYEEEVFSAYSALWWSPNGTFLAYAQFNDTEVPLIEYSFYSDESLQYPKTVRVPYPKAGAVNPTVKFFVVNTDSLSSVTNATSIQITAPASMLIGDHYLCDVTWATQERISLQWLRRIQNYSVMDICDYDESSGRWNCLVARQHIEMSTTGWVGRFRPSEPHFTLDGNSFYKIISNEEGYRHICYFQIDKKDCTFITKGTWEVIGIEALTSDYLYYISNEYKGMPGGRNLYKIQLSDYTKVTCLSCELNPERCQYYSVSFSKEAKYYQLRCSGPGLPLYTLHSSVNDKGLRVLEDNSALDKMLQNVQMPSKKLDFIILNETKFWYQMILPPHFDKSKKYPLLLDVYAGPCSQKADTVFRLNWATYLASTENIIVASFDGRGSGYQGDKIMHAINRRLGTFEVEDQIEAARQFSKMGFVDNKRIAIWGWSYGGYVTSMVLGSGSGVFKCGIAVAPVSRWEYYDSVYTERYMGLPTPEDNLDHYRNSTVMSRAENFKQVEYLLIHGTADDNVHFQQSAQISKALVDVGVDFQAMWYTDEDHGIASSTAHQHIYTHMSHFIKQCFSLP
Give just the number in nM; leave the unit off.

| Mol smiles | IC50, nM |
| --- | --- |
| NCc1c(-c2ccc(Cl)cc2Cl)cc(-c2ccccc2)nc1N | 920 |

## Task Which measured IC50 belongs to COc1cc2c(cc1OC)-c1nc(N)c(CN)c(-c3ccc(Cl)cc3Cl)c1C2 , tested on Dipeptidyl peptidase 4 (Homo sapiens, UniProt P27487)?
## Result 7

* * *

Assay: Tmax in rat at 10 umol/kg
Type: ADME, organism-based
Test settings: in vivo
Value kind: Tmax (min)
# output: bare number, implied unit min

## Task GET /values?readout=Tmax&item= CNC(=O)CN1Cc2c(nc(C)c(CN)c2-c2ccc(Cl)cc2Cl)C1=O (single isomer, unassigned; atropisomer)
## Result 25

* * *

Assay: Oral availability in rat
Assay type: ADME, organism-based
Test settings: in vivo
Value kind: bioavailability (%)
Your answer is read as %, so omit the unit and give the number.

## Task Look up bioavailability for this molecule: Cc1nc2c(c(-c3ccc(Cl)cc3Cl)c1CN)CN(c1ccccc1)C2=O (single isomer, unassigned; atropisomer)
## Result 78

* * *

compounds and their reported inhibition at 10 µM
Assayed target: hERG (KCNH2) (Homo sapiens)
Assay: Inhibition of human ERG at 10 uM by patch clamp assay
Test settings: INH
Supply the numeric figure in %, leaving out any unit text.

| Compound | inhibition at 10 µM, % |
| --- | --- |
| Cc1nc2c(c(-c3ccc(Cl)cc3Cl)c1CN)CN(c1ccc(Cl)cc1)C2=O (single isomer, unassigned; atropisomer) | 82 |

## Task Look up inhibition at 10 µM: Cc1nc2c(c(-c3ccc(Cl)cc3Cl)c1CN)CN(c1ccc(F)cc1)C2=O (single isomer, unassigned; atropisomer)
## Result 92

## Task Quick check: inhibition at 10 µM of Cc1ccc(N2Cc3c(nc(C)c(CN)c3-c3ccc(Cl)cc3Cl)C2=O)cc1 (single isomer, unassigned; atropisomer) ?
## Result 84

## Task Name the reported inhibition at 10 µM value associated with the compound Cc1nc2c(c(-c3ccc(Cl)cc3Cl)c1CN)CNC2=O (single isomer, unassigned; atropisomer)
## Result 68

* * *

Assayed target: Dipeptidyl peptidase 4 (Homo sapiens)
Value kind: pKi
Please keep in mind that pKi is minus log10 of the molar concentration; only the number is needed.

## Task Query: pKi; subject: Cc1nc2c(c(-c3ccc(Cl)cc3Cl)c1CN)CN(CC(=O)N1CCN(C)CC1)C2=O (atropisomer, axis not shown)
## Result 9.17

* * *

Assayed target: Voltage-gated inwardly rectifying potassium channel KCNH2 (Homo sapiens, UniProt Q12809)
Assay: Inhibition of human ERG by flux assay
Value kind: IC50 (µM)
Write the answer as a number in µM, unit excluded.

## Task May I ask what IC50 has been recorded for Cc1nc2cn(Cc3ccccc3)cc2c(-c2ccc(Cl)cc2Cl)c1CN ?
## Result 14

* * *

Assayed target: hERG (KCNH2) (Homo sapiens, UniProt Q12809)
Sequence (Q12809 whole entry): as the sequence (Q12809 whole entry) above
Assay: Inhibition of human ERG at 10 uM by patch clamp assay
Test settings: INH
Value kind: inhibition at 10 µM
Please state the number and follow it with the unit.

| Molecule | Recorded result |
| --- | --- |
| Cc1nc2c(c(-c3ccc(Cl)cc3Cl)c1CN)CN(c1ccc(C#N)cc1)C2=O (single isomer, unassigned; atropisomer) | 97% |
| COc1ccccc1N1Cc2c(nc(C)c(CN)c2-c2ccc(Cl)cc2Cl)C1=O (atropisomer R) | 63% |
| Cc1nc2c(c(-c3ccc(Cl)cc3Cl)c1CN)CN(Cc1ccccc1)C2 | 67% |
| COc1ccc(N2Cc3c(nc(C)c(CN)c3-c3ccc(Cl)cc3Cl)C2=O)cc1 (single isomer, unassigned; atropisomer) | 67% |

## Task // inhibition at 10 µM lookup, key: Cc1nc2c(c(-c3ccc(Cl)cc3Cl)c1CN)CN(c1ccccc1)C2=O (single isomer, unassigned; atropisomer)
## Result 69%

* * *

Recorded pIC50 for the following molecules
Assayed target: Cytochrome P450 3A4 (Homo sapiens, UniProt P08684)
Sequence (P08684 whole entry): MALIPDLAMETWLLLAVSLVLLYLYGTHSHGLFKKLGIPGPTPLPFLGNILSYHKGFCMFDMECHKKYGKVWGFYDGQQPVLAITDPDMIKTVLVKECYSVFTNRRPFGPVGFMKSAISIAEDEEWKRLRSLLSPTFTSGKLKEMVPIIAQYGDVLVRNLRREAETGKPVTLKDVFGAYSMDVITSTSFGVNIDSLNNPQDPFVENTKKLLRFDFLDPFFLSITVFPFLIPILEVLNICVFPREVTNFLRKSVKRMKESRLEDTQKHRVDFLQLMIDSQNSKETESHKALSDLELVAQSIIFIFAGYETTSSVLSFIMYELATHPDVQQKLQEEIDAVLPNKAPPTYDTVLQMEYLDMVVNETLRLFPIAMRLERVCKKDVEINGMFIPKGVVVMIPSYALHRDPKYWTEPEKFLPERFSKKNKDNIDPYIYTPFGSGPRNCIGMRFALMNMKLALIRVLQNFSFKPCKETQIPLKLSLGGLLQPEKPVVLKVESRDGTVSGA
Assay: Inhibition of CYP3A4 in presence of the substrate 7-bezyloxy resorufin
Format: ADME
// pIC50: -log10(molar conc.)

Examples with answers:
| Molecule | Value kind | Recorded result |
| --- | --- | --- |
| Cc1nc2c(c(-c3ccc(Cl)cc3Cl)c1CN)CN(Cc1ccccc1)C2 | pIC50 | 6.47 |
| Cc1nc2c(c(-c3ccc(Cl)cc3Cl)c1CN)CN(Cc1ccccc1)C2=O (single isomer, unassigned; atropisomer) | pIC50 | 5.85 |

Next, consider the following molecule.
## Task May I ask what pIC50 has been recorded for Cc1nc2cn(Cc3ccccc3)cc2c(-c2ccc(Cl)cc2Cl)c1CN ?
## Result 6.14

* * *

Reported EC60 values are given for each entry in this list.
Assayed target: Nuclear receptor subfamily 1 group I member 2 (Homo sapiens, UniProt O75469)
Assay: Inhibition of PXR

Recorded EC60, per entry:
| Compound | Recorded result |
| --- | --- |
| Cc1nc2cn(Cc3ccccc3)cc2c(-c2ccc(Cl)cc2Cl)c1CN | > 5.6 µM |
| Cc1nc2c(c(-c3ccc(Cl)cc3Cl)c1CN)CN(Cc1ccccc1)C2 | 3.3 µM |
| CNC(=O)CN1Cc2c(nc(C)c(CN)c2-c2ccc(Cl)cc2Cl)C1=O (single isomer, unassigned; atropisomer) | > 50 µM |

Here's the next entry for you.
## Task Reported EC60, compound Cc1nc2c(c(-c3ccc(Cl)cc3Cl)c1CN)CN(Cc1ccccc1)C2=O (single isomer, unassigned; atropisomer) : ____
## Result 1.4 µM
